Values were extracted from paper PMC3360746.

# TARGET_DESC: CD36 (Homo sapiens, UniProt P16671)
# Construct: full length human CD36 stably expressed in HEK 293 cells
# Sequence (P16671 2-472): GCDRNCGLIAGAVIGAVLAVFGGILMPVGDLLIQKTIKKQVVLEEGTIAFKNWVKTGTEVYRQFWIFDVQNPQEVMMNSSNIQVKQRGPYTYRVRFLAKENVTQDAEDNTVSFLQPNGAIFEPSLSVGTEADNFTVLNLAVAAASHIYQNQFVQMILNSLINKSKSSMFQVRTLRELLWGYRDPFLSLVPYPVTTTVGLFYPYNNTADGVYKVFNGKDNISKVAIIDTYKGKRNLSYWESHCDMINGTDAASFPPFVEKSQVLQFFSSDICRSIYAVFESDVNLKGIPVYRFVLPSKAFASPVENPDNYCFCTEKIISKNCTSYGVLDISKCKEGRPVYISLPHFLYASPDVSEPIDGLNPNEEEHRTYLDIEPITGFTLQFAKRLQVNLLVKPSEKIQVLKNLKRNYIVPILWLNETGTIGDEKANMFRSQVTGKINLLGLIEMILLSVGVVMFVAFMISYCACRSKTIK
# MEASUREMENT_PROTOCOL: inhibition of Cy3-ox-LDL binding to HEK-CD36 cells at […]°C; affinity cross-linking of ox-LDL to CD36
pIC50: −log10 of the molar value.
TEST_READOUT: pIC50

[A] COc1cc(O)c(/C=N/NC(=O)c2ccc3nccn3c2)c(OC)c1
[B] COc1cc(O)c(/C=N/NC(=O)c2cc3ccccc3s2)c(OC)c1
Would you let me know which has the greater pIC50 value, A or B ? Reply with the label of the item you choose.
B
